Target: UniProt P42336
Sequence (P42336 whole entry): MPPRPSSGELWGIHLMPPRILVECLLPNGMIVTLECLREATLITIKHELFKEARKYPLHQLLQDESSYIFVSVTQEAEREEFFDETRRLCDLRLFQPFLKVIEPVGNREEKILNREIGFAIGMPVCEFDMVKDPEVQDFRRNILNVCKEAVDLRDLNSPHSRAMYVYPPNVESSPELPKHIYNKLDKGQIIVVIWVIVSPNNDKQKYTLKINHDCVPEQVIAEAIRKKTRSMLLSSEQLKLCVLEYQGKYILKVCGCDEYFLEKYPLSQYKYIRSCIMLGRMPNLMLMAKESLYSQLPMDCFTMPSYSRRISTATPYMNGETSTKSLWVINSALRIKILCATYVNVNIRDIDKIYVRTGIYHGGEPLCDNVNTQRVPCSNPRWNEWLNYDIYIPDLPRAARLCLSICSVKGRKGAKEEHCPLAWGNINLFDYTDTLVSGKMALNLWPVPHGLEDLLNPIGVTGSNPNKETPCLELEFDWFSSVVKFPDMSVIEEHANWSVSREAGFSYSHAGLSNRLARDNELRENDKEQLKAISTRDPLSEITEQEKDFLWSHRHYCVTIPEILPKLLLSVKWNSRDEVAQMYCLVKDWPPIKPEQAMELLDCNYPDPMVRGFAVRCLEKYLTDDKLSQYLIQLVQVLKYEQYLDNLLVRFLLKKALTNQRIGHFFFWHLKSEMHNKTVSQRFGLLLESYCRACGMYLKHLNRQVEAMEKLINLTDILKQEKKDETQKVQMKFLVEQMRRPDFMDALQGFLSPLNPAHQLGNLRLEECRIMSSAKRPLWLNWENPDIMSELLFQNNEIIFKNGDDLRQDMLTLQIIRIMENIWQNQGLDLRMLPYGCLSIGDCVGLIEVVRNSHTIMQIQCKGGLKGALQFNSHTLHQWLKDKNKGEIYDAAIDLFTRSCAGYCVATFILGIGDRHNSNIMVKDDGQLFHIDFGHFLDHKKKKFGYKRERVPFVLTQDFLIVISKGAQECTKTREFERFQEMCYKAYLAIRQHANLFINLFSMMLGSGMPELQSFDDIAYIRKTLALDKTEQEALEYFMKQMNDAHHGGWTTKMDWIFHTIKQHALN
Assay: Kinase Glo Luminescent Kinase Assay (Kglo), assay A
Format: biochemical
Settings: read-out: Assay A PI3Kα IC50
Property: IC50 (nM)
Lab book: enter the figure in nM, no units written.

// fetch IC50; item: Cc1ncc(-c2nc(-c3cc(S(=O)(=O)NCCC(C)(C)O)ccc3C)cnc2N)o1 [Example 119.40] ; system: UniProt P42336 150

// fetch IC50; item: Cc1cc(-c2nc(-c3cc(S(=O)(=O)NC4CCOCC4)ccc3C)cnc2N)ccn1 [Example 129.10] ; system: UniProt P42336 550

// fetch IC50; item: COc1cc(-c2nc(-c3cc(S(=O)(=O)NCCC(C)(C)O)ccc3C)cnc2N)ccn1 [Example 119.3] ; system: UniProt P42336 90

// fetch IC50; item: CCN(CC)CCCNS(=O)(=O)c1ccc(C)c(-c2cnc(N)c(-c3ccnc(C)c3)n2)c1 [Example 129.23] ; system: UniProt P42336 2800
